Hello, the source for this data is patent US20250215100A1, in case you need it.

biological target: T1, human CD40 on cells (human, UniProt P25942 21-277); assay: FACS, Raji cells
T1 construct: whole, on cells; The cell line used is named in each row's assay; also called hCD40; TNFRSF5
T1 sequence (P25942 21-277): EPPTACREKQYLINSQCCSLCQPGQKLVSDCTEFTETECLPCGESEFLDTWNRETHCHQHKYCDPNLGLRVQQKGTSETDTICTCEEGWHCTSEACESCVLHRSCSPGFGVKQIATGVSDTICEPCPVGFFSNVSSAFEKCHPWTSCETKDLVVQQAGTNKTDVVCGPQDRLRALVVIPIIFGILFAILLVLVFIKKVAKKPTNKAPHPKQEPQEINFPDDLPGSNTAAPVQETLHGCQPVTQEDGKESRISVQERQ
The reader will find reported pEC50 values listed item by item below.
// pEC50 here means minus log10 of the molar concentration (mol/L)

binder | pEC50
PR006513 (antibody, human IgG1, kappa, V domains shown, PR003379 variant L:S93Q; human IgG1 L234A, L235A, G237A) VH: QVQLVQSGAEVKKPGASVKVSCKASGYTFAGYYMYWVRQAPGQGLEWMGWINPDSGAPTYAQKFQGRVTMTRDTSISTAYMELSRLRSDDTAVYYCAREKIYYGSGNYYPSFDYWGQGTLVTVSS VL: DIQLTQSPSFLSASVGDRVTITCRASQGISSYLAWYQQKPGKAPKLLIYAASTLQSGVPSRFSGSGSGTEFTLTISSLQPEDFATYYCQQLNQYPWTFGQGTKVEIKR | 9.43

Next:
// fetch pEC50 given entry PR006509 (antibody, human IgG1, kappa, V domains shown, PR003379 variant L:S93L; human IgG1 L234A, L235A, G237A) VH: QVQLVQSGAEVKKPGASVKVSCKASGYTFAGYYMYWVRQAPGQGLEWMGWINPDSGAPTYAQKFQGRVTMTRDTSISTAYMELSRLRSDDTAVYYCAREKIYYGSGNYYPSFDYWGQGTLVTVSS VL: DIQLTQSPSFLSASVGDRVTITCRASQGISSYLAWYQQKPGKAPKLLIYAASTLQSGVPSRFSGSGSGTEFTLTISSLQPEDFATYYCQQLNLYPWTFGQGTKVEIKR 9.43
